# measurement-notes: Toxicity liver stage against HepG2, at 10uM
# Format: cell-based
# Set-up: test concentration 10 uM, cell line HepG2-A16-CD81EGFP
# study-conditions: human, HepG2-A16-CD81EGFP cells; read-out: INHIBITION
property-measured: cytotoxicity at 10 µM (%)
Numbers only, in %.

Observe how each entry below is paired with its result.
• Cc1ncsc1CCC(=O)NCc1cc2n(n1)CCN(C(=O)N(C)C)C2 = 15.3
• Cn1cnnc1SCC(=O)N1C[C@@H]2CC[C@H]1CN(Cc1cccnc1)C2 = -2.82
• CCN1CCC(CC(=O)NCc2cc(C)nn2C)CC1 = -14.5
• CC1=Nc2c(c(=O)[nH]n2C2CCCC2)C(c2ccc(O)cc2)S1 (stereo unspecified) = -3.39

For each listed entry, give its cytotoxicity at 10 µM.
1. N#CCCN(C(=O)CN1CCCC1c1ccccc1Cl)c1ccccc1 (stereo unspecified)
2. CC(=O)NCCc1cn(-c2cc(F)ccc2C)cn1
3. CC(C)c1nccc([C@H]2C[C@@H]3CCN(Cc4ccco4)C[C@H]3O2)n1

1: 8.22; 2: -1.47; 3: -5.25

For each listed entry, give its cytotoxicity at 10 µM.
1. O=C(NCc1sc2ccccc2c1Cl)c1cc2n(n1)CCNC2
2. Cc1nc([C@@H]2C[C@@H]3CCN(C(=O)Cc4cccc(F)c4)C[C@H]3O2)no1
3. Cc1nc(C)c(C(=O)N2CCCC2c2nc(O)cc(C(C)C)n2)s1 (stereo unspecified)
4. O=C(NCC(F)(F)F)C1CSCN1S(=O)(=O)c1cccc(F)c1 (stereo unspecified)

1. 7.94
2. 4.17
3. -29.4
4. 18.7
